Origin of values: patent US20140315889A1

target: HDAC8 (Homo sapiens)
Sequence (Q9BY41 whole entry, species assumed): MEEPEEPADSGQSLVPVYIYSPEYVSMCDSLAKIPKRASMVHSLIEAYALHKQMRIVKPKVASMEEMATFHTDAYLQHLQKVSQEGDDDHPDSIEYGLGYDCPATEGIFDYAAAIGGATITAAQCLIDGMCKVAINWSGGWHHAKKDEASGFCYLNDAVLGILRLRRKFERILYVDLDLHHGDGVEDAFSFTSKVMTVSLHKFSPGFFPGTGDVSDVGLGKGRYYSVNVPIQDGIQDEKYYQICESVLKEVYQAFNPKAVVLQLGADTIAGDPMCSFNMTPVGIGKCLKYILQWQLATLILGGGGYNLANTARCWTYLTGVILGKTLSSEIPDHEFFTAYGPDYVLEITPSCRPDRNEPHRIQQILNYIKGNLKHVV
Assay Readout: pIC50
Note: pIC50 values are expressed as the negative base-10 logarithm of concentration in M.

Worked cases, answers included:
O=C(NO)c1ccc(Cn2c3c(c4ccccc42)C(=O)C(CN2CCOCC2)CC3)cc1 (stereo not shown) [Compound 87]	5.89
CN1CCN(C(=O)N(CCCCCCC(=O)NO)c2ccc(-c3ccc4cnn(C)c4c3)cc2)CC1 [CKD-581, reference compound]	7.06
CC1(C)CC(=O)c2c(C(F)(F)F)nn(Cc3ccc(C(=O)NO)cc3)c2C1 [Compound 237]	5.41

Q: What does the record list as pIC50 for CC1(C)CC(=O)c2c(n(Cc3ccc(C(=O)NO)cc3)c3ccccc23)C1 [Compound 19] ?
Ans: 6.10

====

biological target: human recombinant HDAC6 (Homo sapiens, UniProt Q9UBN7); construct: purchased Calibiochem Co. (so in the source) 382180; assay: HDAC enzyme activity test, HDAC6; assay type: biochemical; details: Table 12; ratio HDAC1 IC50 / HDAC6 IC50
# Selectivity for HDAC6, HD1/HD6 >= 600 gives Condition met, anything below gives Condition not met

Q: Decide: Selectivity for HDAC6, HD1/HD6 of `CC1(C)CC(=O)c2c(n(CCCCCCC(=O)NO)c3ccc(F)cc23)C1` >= 600?
Ans: Condition not met

Q: Same again, this time with O=C(NO)c1ccc(Cn2c3c(c4ccccc42)C(=O)C(CN2CCCC2)CC3)cc1 (centres unmarked)
Ans: Condition not met

Q: Now give it for `O=C(NO)c1ccc(Cn2c3c(c4cc(F)ccc42)C(=O)N(CCN2CCN(CCO)CC2)CC3)cc1` too.
Ans: Condition met

Q: Similarly, `CC1(C)CC(=O)c2c(n(CCCCCC(=O)NO)c3cc(F)c(F)cc23)C1` ?
Ans: Condition not met

Q: Note, next up: `O=C(NO)c1ccc(Cn2c3c(c4cc(F)ccc42)C(=O)N(CCN2CCC[C@@H]2CO)CC3)cc1`
Ans: Condition met

Q: Try this compound next: O=C(CCCCCCn1c2c(c3cc(F)ccc31)C(=O)C(CN1CCOCC1)CC2)NO (centres unmarked)
Ans: Condition not met

====

Reported Selectivity for HDAC6, HD1/HD6 values for a set of compounds
biological target: human recombinant HDAC6 (Homo sapiens); construct: purchased Calibiochem Co. (so in the source) 382180; assay: HDAC enzyme activity test, HDAC6; assay type: biochemical; settings: Table 12; ratio HDAC1 IC50 / HDAC6 IC50
Lab note: jot the number down without any unit.

Reference set (3 entries):
CC1CN(CC2CCc3c(c4ccccc4n3Cc3ccc(C(=O)NO)cc3)C2=O)CC(C)O1 (centres unmarked) [Compound 110]	80
Cc1cc2c(n1CCCCCCC(=O)NO)CCCC2=O [Compound 346]	10.2
CC1(C)CC(=O)c2c(n(CCCCCCC(=O)NO)c3c(Cl)cc(Cl)cc23)C1 [Compound 51]	12.5

Q: Consider the compound CC1(C)CC(=O)c2c(n(CCCCCC(=O)NO)c3ccc(F)cc23)C1 [Compound 55] and give its measured Selectivity for HDAC6, HD1/HD6.
Ans: 72.5

Q: Next compound: CN1CCCN(CCN2CCc3c(c4cc(F)ccc4n3Cc3ccc(C(=O)NO)cc3)C2=O)CC1 [Compound 291]
Ans: 426.3

Q: Further, for O=C(NO)c1ccc(Cn2c3c(c4ccccc42)C(=O)C(CN2CC(F)(F)C2)CC3)cc1 (centres unmarked) [Compound 121] ?
Ans: 437.3

Q: How about this compound: CCCCN1CCN(CC2CCc3c(c4cc(F)ccc4n3CCCCCC(=O)NO)C2=O)CC1 (centres unmarked) [Compound 326]
Ans: 103.3

Q: Field entry: COCCN1CCN(CC2CCc3c(c4cc(F)ccc4n3Cc3ccc(C(=O)NO)cc3)C2=O)CC1 (centres unmarked) [Compound 284]
Ans: 1435.7

====

biological target: human recombinant HDAC6 (Homo sapiens, UniProt Q9UBN7); construct: purchased Calibiochem Co. (so in the source) 382180; experiment: HDAC enzyme activity test, HDAC6; assay type: biochemical; conditions: data of Table 11; read-out: IC50 against HDAC6
Assay Readout: pIC50
To interpret pIC50, take it as minus log10 of a concentration measured in moles per litre.

Q: Report pIC50 for O=C(NO)c1ccc(Cn2c3c(c4ccccc42)C(=O)C(CN2CCOCC2)CC3)cc1 (stereo not shown) please.
Ans: 7.89

====

Listed here: items and their measured pIC50.
Molecular target: human recombinant HDAC6 (Homo sapiens)
Construct: purchased Calibiochem Co. (so in the source) 382180
Sequence (Q9UBN7 1-1215): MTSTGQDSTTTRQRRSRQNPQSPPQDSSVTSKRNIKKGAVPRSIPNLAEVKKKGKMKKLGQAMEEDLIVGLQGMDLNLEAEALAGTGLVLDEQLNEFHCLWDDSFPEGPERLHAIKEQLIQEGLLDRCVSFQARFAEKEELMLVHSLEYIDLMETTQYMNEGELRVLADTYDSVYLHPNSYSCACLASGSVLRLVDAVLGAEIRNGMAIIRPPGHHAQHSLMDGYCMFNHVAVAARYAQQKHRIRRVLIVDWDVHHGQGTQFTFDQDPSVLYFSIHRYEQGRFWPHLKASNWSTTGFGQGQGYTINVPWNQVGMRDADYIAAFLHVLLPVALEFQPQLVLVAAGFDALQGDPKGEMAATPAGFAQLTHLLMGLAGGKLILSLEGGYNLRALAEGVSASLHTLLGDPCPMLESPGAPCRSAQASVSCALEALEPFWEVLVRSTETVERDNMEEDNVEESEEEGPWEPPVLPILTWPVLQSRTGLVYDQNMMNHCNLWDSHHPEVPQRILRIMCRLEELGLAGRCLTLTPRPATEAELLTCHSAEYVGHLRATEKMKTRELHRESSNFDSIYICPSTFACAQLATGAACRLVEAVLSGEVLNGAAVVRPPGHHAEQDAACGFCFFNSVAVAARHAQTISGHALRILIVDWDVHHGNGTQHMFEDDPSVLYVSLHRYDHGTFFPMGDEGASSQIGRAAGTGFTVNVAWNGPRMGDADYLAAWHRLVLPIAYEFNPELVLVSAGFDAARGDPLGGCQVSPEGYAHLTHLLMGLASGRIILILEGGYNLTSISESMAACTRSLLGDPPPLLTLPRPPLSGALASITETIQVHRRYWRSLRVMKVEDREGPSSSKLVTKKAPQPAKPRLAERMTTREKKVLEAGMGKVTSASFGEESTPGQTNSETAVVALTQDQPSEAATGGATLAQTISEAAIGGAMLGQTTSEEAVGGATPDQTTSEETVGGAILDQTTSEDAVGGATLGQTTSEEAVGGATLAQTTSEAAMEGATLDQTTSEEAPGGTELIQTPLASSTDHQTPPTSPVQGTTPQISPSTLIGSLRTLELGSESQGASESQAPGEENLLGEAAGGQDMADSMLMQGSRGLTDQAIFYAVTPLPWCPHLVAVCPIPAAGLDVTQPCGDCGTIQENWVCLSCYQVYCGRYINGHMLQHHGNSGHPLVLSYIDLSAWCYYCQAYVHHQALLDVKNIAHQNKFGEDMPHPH
Assay: HDAC enzyme activity test, HDAC6
Format: biochemical
Conditions: Table 12; read-out: Inhibition ability (IC50) HDAC6
API: returns pIC50 as number; meaning -log10 of concentration in mol/L.

// solved cases for pIC50 follow
Cc1c2c(n(Cc3ccc(C(=O)NO)cc3)c1C)CCCC2=O	8.36
CC1(C)CC(=O)c2c(n(Cc3ccc(C(=O)NO)cc3)c3ccccc23)C1	7.68
CC1(C)CC(=O)c2c(n(CCCCCC(=O)NO)c3ccc(F)c(F)c23)C1	6.85
CCCCN1CCN(CC2CCc3c(c4cc(F)ccc4n3Cc3ccc(C(=O)NO)cc3)C2=O)CC1 (stereo not drawn)	8.24
CCN1CCN(CC2CCc3c(c4ccccc4n3CCCCCC(=O)NO)C2=O)CC1 (stereo not drawn)	7.56

Q: Query (compound): O=C(NO)c1ccc(Cn2c3c(c4cc(F)ccc42)C(=O)C(CN2CCOCC2)CC3)cc1 (stereo not drawn) ; field requested: pIC50
Ans: 8.31

Q: Thanks! And CCN1CCN(CC2CCc3c(c4cc(F)ccc4n3Cc3ccc(C(=O)NO)cc3)C2=O)CC1 (stereo not drawn) ?
Ans: 7.94

Q: Lookup COCCN1CCN(CC2CCc3c(c4cc(F)ccc4n3Cc3ccc(C(=O)NO)cc3)C2=O)CC1 (stereo not drawn)
Ans: 8.13

Q: Another: O=C(NO)c1ccc(Cn2c3c(c4ccccc42)C(=O)C(CN2CCOCC2)CC3)cc1 (stereo not drawn)
Ans: 8.13

Q: Moving on to `Cc1cn(Cc2ccc(C(=O)NO)cc2)c2c1C(=O)NCC2`
Ans: 7.35

Q: Do the same for Cc1nccn1CC1CCc2c(c3cc(F)ccc3n2Cc2ccc(C(=O)NO)cc2)C1=O (stereo not drawn) please
Ans: 8.07

Q: Same question for `CN1CCN(CCN2CCc3c(c4cc(F)ccc4n3Cc3ccc(C(=O)NO)cc3)C2=O)CC1` please.
Ans: 7.94

Q: // query: `Cc1nn(Cc2ccc(C(=O)NO)cc2)c2c1C(=O)CC(C)(C)C2`
Ans: 7.91

Q: Entry to check: `CC1(C)CC(=O)c2c(C(F)(F)F)nn(Cc3ccc(C(=O)NO)cc3)c2C1`
Ans: 7.75

Q: Please give the result for O=C(NO)c1ccc(Cn2c3c(c4cc(F)ccc42)C(=O)C(CN2CC(F)(F)C2)CC3)cc1 (stereo not drawn) too.
Ans: 8.11

Q: Again, but for CC1(C)CC(=O)C2c3c(F)cccc3N(CCCCCC(=O)NO)C2C1 (stereo not drawn)
Ans: 7.14

Q: Same for CN1CCN(CC2CCc3c(c4ccccc4n3CCCCCC(=O)NO)C2=O)CC1 (stereo not drawn)
Ans: 7.34

Q: Now the compound Cc1nccn1CC1C(=O)c2c(n(Cc3ccc(C(=O)NO)cc3)c3ccc(F)cc23)CC1(C)C (stereo not drawn)
Ans: 8.74

Q: Same question, Cc1ccc(N2CCN(CC3CCc4c(c5ccccc5n4Cc4ccc(C(=O)NO)cc4)C3=O)CC2)cc1C (stereo not drawn) this time
Ans: 7.39

Q: Request: CCN1CCN(CC2CCc3c(c4ccccc4n3Cc3ccc(C(=O)NO)cc3)C2=O)CC1 (stereo not drawn)
Ans: 7.83

Q: Field entry: `CC1(C)CCc2c(c3ccccc3n2Cc2ccc(C(=O)NO)cc2)C1=O`
Ans: 8.04

Q: Follow-up entry: `Cc1cc2c(n1CCCCCC(=O)NO)CC(C)(C)CC2=O`
Ans: 7.55

Q: And for COCCN1CCN(CC2CCc3c(c4ccccc4n3Cc3ccc(C(=O)NO)cc3)C2=O)CC1 (stereo not drawn) ?
Ans: 7.75
